Overview of reported solubility across a group of compounds:
# assay: physchem
# run.conditions: phosphate buffer, pH 7.4, S
# Description: Solubility (phosphate buffer, pH 7.4)
reported.property: solubility (µM)

• CC(C)CC(NC(=O)[C@H](Cc1c[nH]cn1)NC(=O)[C@H](Cc1ccccc1)NC(=O)OC(C)(C)C)C(O)CC(=O)N[C@@H](CC(C)C)C(=O)NCC(N)c1ccccn1 (stereo partly drawn) = 400
• CC(C)CC(NC(=O)[C@H](Cc1cnc[nH]1)NC(=O)[C@H](Cc1ccccc1)NC(=O)OC(C)(C)C)C(O)CC(=O)N[C@@H](CC(C)C)C(=O)NCc1cccc(CN=C(N)N)c1 (stereo partly drawn) = 930
• CC(C)CC(NC(=O)[C@H](Cc1cnc[nH]1)NC(=O)[C@H](Cc1ccccc1)NC(=O)OC(C)(C)C)C(O)CC(=O)N[C@@H](CC(C)C)C(=O)NCc1cccc(CN)c1 (stereo partly drawn) = 1400
